// data source = patent US20250136722A1

# target or system: CHOK1 cells engineered to overexpress human CCR2 (Homo sapiens)
# Construct: expressed in transfected cells; host or cells: CHOK1 cells
# experiment summary: Antibody dependent cellular cytotoxicity (ADCC) reporter assay (Example 199)
# Assay type: cell-based
# condition: with anti-cotinine antibody SEQ ID NO: 11/12; CHOK1-human CCR2 target cells, Jurkat FcγRIIIa NFAT-luciferase reporter cells; 12-18 hours; read-out: ADCC Reporter Assay pEC50 (converted)
The label YES is reserved for EC50 strictly under 2 nM; NO covers values equal to or above it.

Some solved entries appear below for comparison.
INSERT INTO assay_data (compound, assigned_category) VALUES
  ('CC(C)N(C)[C@@H]1CC[C@H](N2CC[C@H](Nc3ncnc4ccc(C(F)(F)F)cc34)C2=O)[C@H](NC(=O)[C@H]2CC[C@H](CNC(=O)CCCC(=O)NCCCOCCCNC(=O)[C@H]3CC(=O)N(C)[C@@H]3c3cccnc3)CC2)C1 [Example 20]', 'YES'),
  ('CC(C)N(C)[C@@H]1CC[C@H](N2CC[C@H](Nc3ncnc4ccc(C(F)(F)F)cc34)C2=O)[C@H](NC(=O)[C@H]2CC[C@@H](NC(=O)CCOCCOCCOCCNC(=O)[C@H]3CC(=O)N(C)[C@@H]3c3cccnc3)CC2)C1 [Example 28]', 'YES'),
  ('CC(C)N(C)[C@@H]1CC[C@H](N2CC[C@H](Nc3ncnc4ccc(C(F)(F)F)cc34)C2=O)[C@H](NC(=O)CCOCCNC(=O)CCOCCNC(=O)CCOCCNC(=O)[C@H]2CC(=O)N(C)[C@@H]2c2cccnc2)C1 [Example 46]', 'YES');

Is EC50 of CC(C)N(C)[C@@H]1CC[C@H](N2CC[C@H](Nc3ncnc4ccc(C(F)(F)F)cc34)C2=O)[C@H](NC(=O)C2CCN(C3CCN(C(=O)CCOCCOCCNC(=O)[C@H]4CC(=O)N(C)[C@@H]4c4cccnc4)CC3)CC2)C1 [Example 172] strictly below 2 nM?
YES

Is EC50 of CC(C)N(C)[C@@H]1CC[C@H](N2CC[C@H](Nc3ncnc4ccc(C(F)(F)F)cc34)C2=O)[C@H](NC(=O)CCOCCOCCNC(=O)NCCOCCOCCNC(=O)[C@H]2CC(=O)N(C)[C@@H]2c2cccnc2)C1 [Example 119] strictly below 2 nM?
YES

Is EC50 of CC(C)N(C)[C@@H]1CC[C@H](N2CC[C@H](Nc3ncnc4ccc(C(F)(F)F)cc34)C2=O)[C@H](NC(=O)[C@H]2CC[C@@H](C(=O)NCCCN3CCN(CCCNC(=O)[C@H]4CC(=O)N(C)[C@@H]4c4cccnc4)CC3)CC2)C1 [Example 150] strictly below 2 nM?
NO

Is EC50 of CC(C)N(C)[C@@H]1CCC(N2CC[C@H](Nc3ncnc4ccc(C(F)(F)F)cc34)C2=O)[C@H](NC(=O)CCOCCOCCOCCOCCOCCOCCOCCOCCNC(=O)[C@H]2CC(=O)N(C)[C@@H]2c2cccnc2)C1 (some centres unmarked) [Example 42] strictly below 2 nM?
YES

Is EC50 of CC(C)N(C)[C@@H]1CC[C@H](N2CC[C@H](Nc3ncnc4ccc(C(F)(F)F)cc34)C2=O)[C@H](NC(=O)CCCCCCCCC(=O)NCCCCCCCCCCNC(=O)[C@H]2CC(=O)N(C)[C@@H]2c2cccnc2)C1 [Example 165] strictly below 2 nM?
YES

Is EC50 of CC(C)N(C)[C@@H]1CC[C@H](N2CC[C@H](Nc3ncnc4ccc(C(F)(F)F)cc34)C2=O)[C@H](NC(=O)C[C@H]2CC[C@H](NC(=O)CCOCCOCCOCCNC(=O)[C@H]3CC(=O)N(C)[C@@H]3c3cccnc3)CC2)C1 [Example 33] strictly below 2 nM?
NO

Is EC50 of CC(C)N(C)[C@@H]1CC[C@H](N2CC[C@H](Nc3ncnc4ccc(C(F)(F)F)cc34)C2=O)[C@H](NC(=O)c2cc(OCCOCCOCCOCCOCCNC(=O)[C@H]3CC(=O)N(C)[C@@H]3c3cccnc3)ccn2)C1 [Example 88] strictly below 2 nM?
NO

Is EC50 of CC(C)N(C)[C@@H]1CC[C@H](N2CC[C@H](Nc3ncnc4ccc(C(F)(F)F)cc34)C2=O)[C@H](NC(=O)[C@H]2CC[C@@H](NC(=O)C3CCC4(CC3)CCN(C(=O)[C@H]3CC(=O)N(C)[C@@H]3c3cccnc3)CC4)CC2)C1 [Example 95] strictly below 2 nM?
NO

Is EC50 of CC(C)N(C)[C@@H]1CC[C@H](N2CC[C@H](Nc3ncnc4ccc(C(F)(F)F)cc34)C2=O)[C@H](NC(=O)CCOCCOCCOCCNc2c(NCCCNC(=O)[C@H]3CC(=O)N(C)[C@@H]3c3cccnc3)c(=O)c2=O)C1 [compound 169] strictly below 2 nM?
YES

Is EC50 of CC(C)N(C)[C@@H]1CC[C@H](N2CC[C@H](Nc3ncnc4ccc(C(F)(F)F)cc34)C2=O)[C@H](NC(=O)[C@H]2CC[C@H](NC(=O)CCO[C@H]3CC[C@@H](OCCNC(=O)[C@H]4CC(=O)N(C)[C@@H]4c4cccnc4)CC3)CC2)C1 [Example 114] strictly below 2 nM?
NO

Is EC50 of CC(C)N(C)[C@@H]1CC[C@H](N2CC[C@H](Nc3ncnc4ccc(C(F)(F)F)cc34)C2=O)[C@H](NC(=O)CCCCCCCCNCCCCCCCCCCNC(=O)[C@H]2CC(=O)N(C)[C@@H]2c2cccnc2)C1 [compound 196] strictly below 2 nM?
YES

Is EC50 of CC(C)N(C)[C@@H]1CC[C@H](N2CC[C@H](Nc3ncnc4ccc(C(F)(F)F)cc34)C2=O)[C@H](NC(=O)CCCCOCCCCCCCCOCCCCNC(=O)[C@H]2CC(=O)N(C)[C@@H]2c2cccnc2)C1 [Example 161] strictly below 2 nM?
YES

Is EC50 of CC(C)N(C)[C@@H]1CC[C@H](N2CC[C@H](Nc3ncnc4ccc(C(F)(F)F)cc34)C2=O)[C@H](NC(=O)CCCNC(=O)CCCC(=O)NCCCOCCCNC(=O)[C@@H]2CC(=O)N(C)[C@H]2c2cccnc2)C1 [Example 21] strictly below 2 nM?
YES

* * *

# Tested on: CCR2 expressing cells (CD11b+Ly6c+ Hi) in peripheral blood
# experiment summary: In vivo depletion assay, flow cytometry of peripheral blood (Example 201)
# Parameters: species or system Human CCR2 (hCCR2) knock-in mice (C57 background)
# condition: hCCR2 knock-in mice; IV 0.1 mpk compound + 10 mpk anti-cotinine antibody (SEQ ID NO: 13/14); peripheral blood at 48 hr
The reader will find reported % Depletion of CCR2 expressing cells values listed item by item below.
Entry rule: numbers only, all in %.

Field: example entries. Status: answers known.
INSERT INTO assay_data (compound, readout_label, observed_result) VALUES
  ('CC(C)N(C)[C@@H]1CC[C@H](N2CC[C@H](Nc3ncnc4ccc(C(F)(F)F)cc34)C2=O)[C@H](NC(=O)[C@H]2CC[C@@H](N3CCN(S(=O)(=O)C4CCN(C(=O)[C@H](C)NC(=O)[C@H]5CC(=O)N(C)[C@@H]5c5cccnc5)CC4)CC3)CC2)C1 [compound 71]', '% Depletion of CCR2 expressing cells', 35.25),
  ('CN1C(=O)C[C@H](C(=O)NCCOCCOCCOCCOCCOCCOCCC(=O)N[C@@H]2C[C@H](NC(C)(C)C)CC[C@@H]2N2CC[C@H](Nc3ncnc4ccc(C(F)(F)F)cc34)C2=O)[C@H]1c1cccnc1 [Example 38]', '% Depletion of CCR2 expressing cells', 84.55);

Next item in the queue.
Record lookup: for CCR2 expressing cells (CD11b+Ly6c+ Hi) in peripheral blood, what % Depletion of CCR2 expressing cells belongs to CN1C(=O)C[C@H](C(=O)NCCOCCOCCOCCOCCOCCC(=O)N[C@@H]2C[C@H](NC(C)(C)C)CC[C@@H]2N2CC[C@H](Nc3ncnc4ccc(C(F)(F)F)cc34)C2=O)[C@H]1c1cccnc1 [Example 37] ?
75

* * *

# target or system: human alpha1 nicotinic acetylcholine (nACh) receptor (Homo sapiens, UniProt P02708+Q07001)
# Sequence (P02708 21-457): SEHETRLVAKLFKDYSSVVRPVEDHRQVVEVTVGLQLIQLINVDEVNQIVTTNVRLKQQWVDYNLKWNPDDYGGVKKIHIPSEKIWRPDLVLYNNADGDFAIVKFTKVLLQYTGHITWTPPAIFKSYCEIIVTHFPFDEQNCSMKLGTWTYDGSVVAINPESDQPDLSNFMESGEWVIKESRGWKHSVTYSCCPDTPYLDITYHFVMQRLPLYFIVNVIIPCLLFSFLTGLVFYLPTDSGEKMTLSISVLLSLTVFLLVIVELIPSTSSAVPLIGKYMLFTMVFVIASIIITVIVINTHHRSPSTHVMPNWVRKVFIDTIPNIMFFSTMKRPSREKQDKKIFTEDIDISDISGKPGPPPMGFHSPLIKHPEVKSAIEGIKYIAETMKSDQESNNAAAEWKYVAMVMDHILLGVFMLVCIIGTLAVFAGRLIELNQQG
# Sequence (P11230 24-501 partner): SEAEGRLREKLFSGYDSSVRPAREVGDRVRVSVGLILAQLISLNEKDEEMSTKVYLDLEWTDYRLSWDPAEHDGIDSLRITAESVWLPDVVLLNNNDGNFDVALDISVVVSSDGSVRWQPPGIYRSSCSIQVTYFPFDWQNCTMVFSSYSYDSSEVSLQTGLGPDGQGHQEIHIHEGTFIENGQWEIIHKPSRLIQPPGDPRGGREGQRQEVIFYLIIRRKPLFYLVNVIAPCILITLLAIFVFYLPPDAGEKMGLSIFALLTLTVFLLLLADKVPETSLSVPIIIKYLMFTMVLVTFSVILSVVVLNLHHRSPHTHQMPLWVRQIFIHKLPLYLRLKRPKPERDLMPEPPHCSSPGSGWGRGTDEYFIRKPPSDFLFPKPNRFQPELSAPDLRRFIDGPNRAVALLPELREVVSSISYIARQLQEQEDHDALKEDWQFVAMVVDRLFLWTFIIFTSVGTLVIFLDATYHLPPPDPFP
# Sequence (Q07001 22-517): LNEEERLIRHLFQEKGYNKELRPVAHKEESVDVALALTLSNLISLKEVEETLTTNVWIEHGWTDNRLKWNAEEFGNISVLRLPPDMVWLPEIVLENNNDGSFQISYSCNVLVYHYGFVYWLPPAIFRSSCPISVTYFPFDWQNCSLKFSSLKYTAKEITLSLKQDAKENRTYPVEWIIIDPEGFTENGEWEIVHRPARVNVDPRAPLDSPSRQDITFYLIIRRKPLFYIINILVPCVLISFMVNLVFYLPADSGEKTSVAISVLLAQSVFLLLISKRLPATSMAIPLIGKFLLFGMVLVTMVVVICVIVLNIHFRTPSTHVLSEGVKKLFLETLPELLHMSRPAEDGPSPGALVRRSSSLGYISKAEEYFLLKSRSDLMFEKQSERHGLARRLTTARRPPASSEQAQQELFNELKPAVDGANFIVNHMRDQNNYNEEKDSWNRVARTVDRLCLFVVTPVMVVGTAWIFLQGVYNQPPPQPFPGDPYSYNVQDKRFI
# experiment summary: Nicotinic acetylcholine receptor antagonism assay, IONFlux automated patch clamp (Example 203)
# Type: cell-based
# condition: maximum percentage antagonism at maximum concentration tested 100 μM; read-out: Maximum Response (%)
readout label: Emax at 100 µM
Kindly write the number and append the unit.

INSERT INTO measurements (smiles_input, observed_result) VALUES
  ('CC(C)N(C)[C@@H]1CC[C@H](N2CC[C@H](Nc3ncnc4ccc(C(F)(F)F)cc34)C2=O)[C@H](NC(=O)[C@H]2CC[C@H](NC(=O)CCCC(=O)NCCCOCCCNC(=O)[C@H]3CC(=O)N(C)[C@@H]3c3cccnc3)CC2)C1', '34.2%');

Fill in: Emax at 100 µM of CCN1C(=O)C[C@H](C(=O)NCCOCCOCCOCCC(=O)N[C@H]2CC[C@@H](C(=O)N[C@@H]3C[C@H](N(C)C(C)C)CC[C@@H]3N3CC[C@H](Nc4ncnc5ccc(C(F)(F)F)cc45)C3=O)CC2)[C@H]1c1cccnc1 is ___
79.2%

Fill in: Emax at 100 µM of CC(C)N(C)[C@@H]1CC[C@H](N2CC[C@H](Nc3ncnc4ccc(C(F)(F)F)cc34)C2=O)[C@H](NC(=O)[C@H]2C[C@@H](NC(=O)CCOCCOCCOCCNC(=O)[C@H]3CC(=O)N(C)[C@@H]3c3cccnc3)C2)C1 is ___
59.5%

Fill in: Emax at 100 µM of CC(C)N(C)[C@@H]1CC[C@H](N2CC[C@H](Nc3ncnc4ccc(C(F)(F)F)cc34)C2=O)[C@H](NC(=O)[C@H]2CC[C@@H](NC(=O)CCOCCOCCNC(=O)CNC(=O)[C@H]3CC(=O)N(C)[C@@H]3c3cccnc3)CC2)C1 is ___
76.6%
